- Tested on: M14
- assayExplanation: NCI tumour cell line growth inhibition, 48 h
Activity calls are given as the source filed them. Cut-off read from the data, not from the text of the source: active = GI50 up to about 1.1 µM and inactive = higher.
# reported GI50; entries follow
readoutName: GI50

compound: COC(=O)C1C=NNC1C(=O)OC (centres undefined)
result: > 100 µM (inactive)

compound: Cc1cccc(C)c1NC(=O)CCCC(=O)C1/C(=N/NC(=O)CC#N)CCC/C1=N\NC(=O)CC#N (centres undefined)
result: > 100 µM (inactive)

compound: COc1ccc(C(=O)N2c3ccccc3N(C)n3cccc3C2CC(=O)O)cc1 (centres undefined)
result: > 100 µM (inactive)

compound: N#CCc1nnc(N)o1
result: > 100 µM (inactive)

compound: OC1C2[C@@H](O)CCCN2C[C@@H](O)[C@H]1O (some centres undefined)
result: > 100 µM (inactive)

compound: COc1ccc2cc(/C=N\NC(=O)Nc3cccc4ccccc34)ccc2c1
result: 33.4 µM (inactive)

compound: O=C(NC(=S)Nc1ccc2c(c1)Sc1ccccc1O2)c1ccc([N+](=O)[O-])cc1
result: > 100 µM (inactive)

compound: COc1ccc2nc3cc([N+](=O)[O-])ccc3c(NNc3ccccc3)c2c1
result: 27.5 µM (inactive)

compound: NCC(=O)NC(CO)C(=O)O (centres undefined)
result: > 100 µM (inactive)

compound: Cc1[nH]n(C(=N)N)c(=O)c1CCO
result: > 100 µM (inactive)

compound: COc1cc(/C=N/c2nc3cc4sc(/N=C/c5cc(OC)c(OC)c(OC)c5)nc4cc3s2)cc(OC)c1OC
result: 66.8 µM (inactive)

compound: COc1ccc(Nc2nc3ccccc3nc2-c2cccs2)cc1
result: 47.1 µM (inactive)

compound: CCC1CCc2c(OC)ccc(OCC(=O)O)c2C1=O (centres undefined)
result: > 100 µM (inactive)

compound: Cc1cc2c(Br)cc(Br)c(O)c2nc1C(=O)c1ccccc1
result: > 43.3 µM (inactive)

compound: C1CCC(OCc2nnn3c2CCC3)OC1 (centres undefined)
result: > 100 µM (inactive)

compound: CC(C)OP(=O)(OC(C)C)c1ccc2c(c1)OCCOCCOCCOCCO2
result: > 100 µM (inactive)

compound: C(/C=C/N1CCCC1)=C\c1nc(N2CCCC2)c2ccccc2n1
result: 18 µM (inactive)

compound: CN1CCc2c(sc3nc(S)nc(S)c23)C1
result: > 100 µM (inactive)

compound: CC(=O)Nc1ccc(C(=O)NN2C(=O)C(Cl)C2c2ccc(Cl)cc2)cc1 (centres undefined)
result: > 100 µM (inactive)

compound: CC(=O)Oc1c(Br)ccc2cc(C(Br)Br)c(C(=O)c3ccccc3)nc12
result: 21.2 µM (inactive)

compound: CCCCCCCCCCCCCB(O)O
result: > 100 µM (inactive)

compound: O=CC1C(Cl)=Nc2nc3ccccc3n2C1c1ccc([N+](=O)[O-])cc1 (centres undefined)
result: 7.93 µM (inactive)

compound: CC(=O)OC1CC(n2cc(F)c(=O)[nH]c2=O)OC1CO (centres undefined)
result: 2.16 µM (inactive)

compound: C=CCOCC1C2CCC3(OCCO3)C21 (centres undefined)
result: > 100 µM (inactive)

---

- System: DMS-114
- assayExplanation: NCI tumour cell line growth inhibition, 48 h
Activity calls are given as the source filed them. Cut-off read from the data, not from the text of the source: active = GI50 up to about 1.1 µM and inactive = higher.
Outcome codes: Y for active, N for inactive

compound: Nc1ccc(C(=O)NN2C(=O)C(Cl)C2c2ccccc2O)cc1 (stereo unspecified)
targetDesc: DMS-114
label: N
//
compound: CC1=C(C(=O)Nc2cccc(Cl)c2)C(c2ccc([N+](=O)[O-])cc2)C(C(=O)Nc2cccc(Cl)c2)=C(C)N1
targetDesc: DMS-114
label: N
//
compound: O=C1CC23CC(=O)CC2(C1)c1ccccc1C3=O (stereo unspecified)
targetDesc: DMS-114
label: N
//
compound: NNC(=S)N/N=C(/C(=O)Nc1cc(Cl)ccc1Cl)C1C(=O)Nc2ccccc2[S+]1[O-] (stereo unspecified)
targetDesc: DMS-114
label: N
//
compound: COC(=O)NC1C(C)OC(OC2C/C=C(/C)C3C=CC4C(OC5CC(OC6CCC(OC7CC(O)C(OC8CCC(O)C(C)O8)C(C)O7)C(C)O6)C(OC(C)=O)C(C)O5)C(C)CC(C)C4C3(C)/C(O)=C3/C(=O)OC4(CC(C=O)=CC(O)C4/C=C\2C)C3=O)CC1(C)[N+](=O)[O-] (stereo unspecified)
targetDesc: DMS-114
label: Y
//
compound: CCOC(=O)Nn1c(C)cc(C(=O)OC)c1C
targetDesc: DMS-114
label: N
//
compound: CC(C)=CCCc1c(C)ccc2c1C(=O)C(=O)C(C(C)C)=C2
targetDesc: DMS-114
label: N
//
compound: C=CCCCCn1c2ccccc2c2c(C)c3cnccc3c(C)c21
targetDesc: DMS-114
label: N
//
compound: CC1(C)CCc2cc3c(cc2O1)OCC1c2cc4c(cc2OC31)OCO4 (stereo unspecified)
targetDesc: DMS-114
label: N
//
compound: CC(C)c1ccc(/C=C(\NC(=O)c2ccccc2)c2nc3ccccc3[nH]2)cc1
targetDesc: DMS-114
label: N
//
compound: COC1CC(OS(=O)(=O)c2ccc(C)cc2)C(OC(=O)c2ccccc2)C(C)O1 (stereo unspecified)
targetDesc: DMS-114
label: N
//
compound: Oc1nc(S)nc2c1CCCN2
targetDesc: DMS-114
label: N
//
compound: Cc1noc(C)c1CCCOC1COc2ccccc2OCCOCCOc2ccccc2OC1
targetDesc: DMS-114
label: N
//
compound: Cc1cc(NS(=O)(=O)c2ccc(NC(=O)c3ccc(Cl)c4c(Nc5ccc(S(=O)(=O)Nc6cc(C)on6)cc5)c5ccccc5nc34)cc2)no1
targetDesc: DMS-114
label: N
//
compound: CCCC(=O)OC[n+]1ccc2c(C)c3[nH]c4ccccc4c3c(C)c2c1
targetDesc: DMS-114
label: Y
//
compound: OCc1ccccc1C1CSCSC1
targetDesc: DMS-114
label: N
//
compound: COc1ccc(C2=C3c4cc(OC)c(OC)cc4CCN3C(=S)SS2)cc1OC
targetDesc: DMS-114
label: N
//
compound: O=C1C2c3[nH]c4ccccc4c3[C@@H]3CCCCCCCCCCC3C2C(=O)N1c1ccccc1 (stereo partly specified)
targetDesc: DMS-114
label: N
//
compound: COc1cccc(C2CC(C)=Nc3c(ccc4c3C(=O)c3ccccc3C4=O)N2)c1O (stereo unspecified)
targetDesc: DMS-114
label: N
//
compound: COc1cc(/C=C/c2ccc(C)cc2)cc(OC)c1OC
targetDesc: DMS-114
label: N
//
compound: CC(C)(C)C1(O)Cc2ccccc2C(=O)O1 (stereo unspecified)
targetDesc: DMS-114
label: N
//
compound: C/C(CN1C(=O)c2ccccc2C1=O)=N\NS(=O)(=O)c1ccc(F)cc1
targetDesc: DMS-114
label: N
//
compound: COC(=O)/C(C#N)=C1\NN=NN1CCCN1CCOCC1
targetDesc: DMS-114
label: N
//
compound: CNS(=O)(=O)NNS(=O)(=O)c1ccc(Cl)cc1
targetDesc: DMS-114
label: N
//
compound: CC(=O)Oc1c(Br)ccc2cc(C(Br)Br)c(C(=O)c3ccccc3)nc12
targetDesc: DMS-114
label: N
//
compound: COc1ccc(/C=C/C(=O)c2c(-c3ccccc3)nn(C)c(=O)c2N2CCCCC2)cc1
targetDesc: DMS-114
label: N
//
compound: O=C(O)CCC1CCc2cccc3occ1c23 (stereo unspecified)
targetDesc: DMS-114
label: N
//
compound: CC(C)(C)OC(=O)Cc1ccc2c(ccn2Cc2ccccc2)c1
targetDesc: DMS-114
label: N
//
compound: Cn1c2c(c3ccccc31)CCN(CCCCN1CCN(c3cccc(Cl)c3)CC1)C2=O
targetDesc: DMS-114
label: N
//
compound: COc1ccc(C2=Nc3ccccc3NC(=O)C2)cc1
targetDesc: DMS-114
label: N
//
compound: COC(=O)c1ccc2c(c1)C(NC(C)=O)CCc1cc(OC)c(OC)c(OC)c1-2 (stereo unspecified)
targetDesc: DMS-114
label: Y

---

- Test system: NCI/ADR-RES
- assayExplanation: NCI tumour cell line growth inhibition, 48 h
The source made the active and inactive calls. No stated cut-off is given here; in the data, active = GI50 up to about 1.1 µM and inactive = higher.

compound: CC(O)C1(CNc2cc(Cl)nc(N)n2)CCCC1 (stereo unspecified)
GI50: > 100 µM (inactive)

compound: c1ccc(CCN(Cc2nc3ccccc3[nH]2)Cc2nc3ccccc3[nH]2)cc1
GI50: 5.93 µM (inactive)

compound: CC/C(=C/OC)P1(=O)OC(C)(C)CN1C(C)(C)C (stereo unspecified)
GI50: > 100 µM (inactive)

compound: OC(c1ccoc1)c1cc2ccccc2s1 (stereo unspecified)
GI50: > 10 µM (inactive)

compound: CC(=O)Nc1ccc(C(O)/C(=N/N)c2nc3ccc(Cl)cc3nc2O)cc1 (stereo unspecified)
GI50: > 100 µM (inactive)

compound: O=c1cccccc1O
GI50: 39.6 µM (inactive)
